These measurements were taken from the RNAGym collection of RNA variant scans (doi:10.7554/elife.80360).

B1: Twister Ribozyme (parent)
chain: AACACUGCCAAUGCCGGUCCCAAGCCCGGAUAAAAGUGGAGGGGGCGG

variants of: B1; experiment: self-cleavage, relative activity (ratio to wild type); higher = more cleavage; co-transcriptional
result_type: self-cleavage
// no unit string in output, number only

Requested field: self-cleavage. Item: AACACUGCCGAUGCCGGUCCCAAGCCCGGAUAAAAUUGGAGGGGGCGG [A10G G36U]
0.823

Which measured self-cleavage value corresponds to AACACUGCCAAUACCGGUCCCAAGCCCGGAUAAAAGUCGAGGGGGCGG [G13A G38C] ?
0.78

Could you share which self-cleavage value was measured for AACGCUGCCAAUGCCGGUCCCAAGCCCGGAUAAAAGUGGAGGGUGCGG [A4G G44U] ?
0.968

Query (variant): AACACUGCCAAUGCCGGACCCAAGCCCGGAUAAAAGUGGAAGGGGCGG [U18A G41A] ; field requested: self-cleavage
0.101

What does the record list as self-cleavage for AACACUGCCAAUGCCGGUCCCAAGCCCAGAUAAGAGUGGAGGGGGCGG [G28A A34G] ?
0.606

More entries:
Which self-cleavage value is on record for AACACUGCCAAUGCCGGUCCCAAGCCCUGGUAAAAGUGGAGGGGGCGG [G28U A30G] ?
0.999

What value of self-cleavage has been reported for the following variant? AACACUGCCAAUGCCGGUCCCAAGCCGGGAUAAAAGUGGCGGGGGCGG [C27G A40C]
0.119

What measured self-cleavage goes with UACACUGCCAAUGCCGGUCCCAAGCCCGGAUAAAAGUGGAGUGGGCGG [A1U G42U] ?
0.0745

Consider the variant shown here: AACACUGCCAAUGCCGGUACCAAGCCCGGAUAAAAGUGGAGGGGGCCG [C19A G47C] What is its recorded self-cleavage?
0.155

// returns reported self-cleavage for input AAGACUGCCAAUCCCGGUCCCAAGCCCGGAUAAAAGUGGAGGGGGCGG [C3G G13C]
0.124

Please report the recorded self-cleavage for AACACUGCCAAUGCCUGUCGCAAGCCCGGAUAAAAGUGGAGGGGGCGG [G16U C20G] .
0.098
